Test system: Staphylococcus aureus
Assay: Antibacterial activity against methicillin-resistant Staphylococcus aureus RKI 11-02670 after 18 hrs
Assay type: functional
Details: RKI 11-02670, 18 h
Measurement Label: MIC

- CC1(C(=O)NC2CCCCC2)CN(S(C)(=O)=O)CC(=O)N1/N=C/c1ccc([N+](=O)[O-])o1 (stereo not drawn): > 100 µM
- CC(C)(C)NC(=O)C1(C)COCC(=O)N1/N=C/c1ccc([N+](=O)[O-])o1 (stereo not drawn): > 100 µM
- CC1(C(=O)NCc2ccccc2)CSCC(=O)N1/N=C/c1ccc([N+](=O)[O-])o1 (stereo not drawn): > 100 µM

###

Tested on: Staphylococcus aureus
Test: Antibacterial activity against methicillin-resistant Staphylococcus aureus RKI 11-02670 after 18 hrs
Assay type: functional
Details: RKI 11-02670, 18 h
# MIC per entry
Measurement Label: MIC

• CC(C)(C)NC(=O)C1(C)CCC(=O)N1/N=C/c1ccc([N+](=O)[O-])o1 (centres undefined) = > 100 µM
• CC(=O)NC[C@H]1CN(c2ccc(N3CCOCC3)c(F)c2)C(=O)O1 [LINEZOLID] = 0.62 µg/mL
• CC1(C(=O)NCc2ccc(Cl)cc2)CCC(=O)N1/N=C/c1ccc([N+](=O)[O-])o1 (centres undefined) = > 100 µM
• CC1(C(=O)NC2CCCCC2)CCC(=O)N1/N=C/c1ccc([N+](=O)[O-])o1 (centres undefined) = ≥ 100 µM
